The origin of these recorded values is patent US8247211B2.

# Tested on: Staphylococcus sp.
# test_protocol: In vitro antibacterial evaluation: minimum inhibitory concentration (MIC), broth dilution method
# Type: cell-based
# conditions: Coagulase Negative Staphylococcus (GC 4548); 18 hours at 35° C.
readout_name: MIC Coagulase Negative Staphylococcus (GC 4548)
Units required after the number.

Recorded results for 3 compounds are shown here.
>>> measured_result("COc1ccc2cc(COC3C(CO)OC(OC4C(CO)OC(Oc5ccc(CC6NC(=O)C(C(C)c7ccccc7)NC(=O)CNC(=O)C(CO)NC(=O)C(CC7CNC(=N)N7C7OC(CO)C(O)C(O)C7O)NC(=O)C(CC7CNC(=N)N7)NC6=O)cc5)C(O)C4O)C(O)C3O)ccc2c1 (stereo not shown) [Example 245a]")
"1 µg/mL"
>>> measured_result("CC(c1ccccc1)C1NC(=O)CNC(=O)C(CO)NC(=O)C(CC2CNC(=N)N2C2OC(CO)C(O)C(O)C2O)NC(=O)C(CC2CNC(=N)N2)NC(=O)C(Cc2ccc(OC3OC(CO)C(OC4OC(CO)C(O)C(OCc5ccc(OCc6ccccc6)cc5)C4O)C(O)C3O)cc2)NC1=O (stereo not shown) [Example 246b]")
"64 µg/mL"
>>> measured_result("CC(C)CC(=O)OC1C(OC2C(CO)OC(Oc3ccc(CC4NC(=O)C(C(C)c5ccc(F)cc5)NC(=O)CNC(=O)C(CO)NC(=O)C(C(O)C5CNC(=N)N5C5OC(CO)C(O)C(O)C5O)NC(=O)C(C(O)C5CNC(=N)N5)NC4=O)cc3)C(O)C2O)OC(CO)C(O)C1O (stereo not shown) [Example 261b]")
"4 µg/mL"

Prompt: Requested read-out: MIC Coagulase Negative Staphylococcus (GC 4548). Entry: CC(C)CC(=O)OC1C(O)C(CO)OC(OC2C(CO)OC(Oc3ccc(CC4NC(=O)C(C(C)c5ccc(Cl)cc5)NC(=O)CNC(=O)C(CO)NC(=O)C(C(O)C5CNC(=N)N5C5OC(CO)C(O)C(O)C5O)NC(=O)C(C(O)C5CNC(=N)N5)NC4=O)cc3)C(O)C2O)C1O (stereo not shown) [Example 262b]
Completion: 1 µg/mL
